# system under test: T1, QP096 (human SIRPα V2 ECD(E31-R370)-flag-his) (human)
# T1 construct: the construct carries flag and his tags; also called SIRPαV2-Flag-his; Human SIRPα V2 (QP096)
# T1 sequence (chain, as listed by the source limits assumed): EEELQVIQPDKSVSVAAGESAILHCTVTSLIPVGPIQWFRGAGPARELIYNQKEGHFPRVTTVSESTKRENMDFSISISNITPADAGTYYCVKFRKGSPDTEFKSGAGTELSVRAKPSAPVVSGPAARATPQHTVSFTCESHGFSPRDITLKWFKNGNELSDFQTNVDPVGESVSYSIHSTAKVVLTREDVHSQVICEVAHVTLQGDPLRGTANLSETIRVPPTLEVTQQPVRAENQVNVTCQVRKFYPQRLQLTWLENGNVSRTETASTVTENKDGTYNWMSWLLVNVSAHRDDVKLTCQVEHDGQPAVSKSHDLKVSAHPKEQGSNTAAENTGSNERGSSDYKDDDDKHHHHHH
# run description: SPR, Biacore
assay metric: pKd
Field pKd (float): negative decimal logarithm of the concentration in molar.

# count of solved cases: 2
INSERT INTO measurements (binder, meas_value) VALUES
  ('QP2561770 (antibody, human IgG4, V domains shown, Human IgG4 heavy constant region and kappa CL) VH: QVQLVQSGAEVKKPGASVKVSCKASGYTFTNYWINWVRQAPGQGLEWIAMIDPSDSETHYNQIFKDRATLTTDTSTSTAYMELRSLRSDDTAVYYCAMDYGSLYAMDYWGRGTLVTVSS VL: DIVLTQSPDSLAVSLGERATINCRASQSVRSSGYNWIFWYQQKPGQPPKLLIYLASNRDSGVPDRFSGSGSGTDFTLTISSLQAEDVAVYYCQESRELPTFGQGTKLEIK', 10.43),
  ('QP2561586 (antibody, human IgG4, V domains shown, Human IgG4 heavy constant region and kappa CL) VH: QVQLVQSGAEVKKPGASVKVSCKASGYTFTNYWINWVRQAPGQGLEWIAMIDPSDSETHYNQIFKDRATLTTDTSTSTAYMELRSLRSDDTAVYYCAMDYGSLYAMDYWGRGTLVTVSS VL: DIVLTQSPDSLAVSLGERATINCRASKSVSSSGYNYIFWYQQKPGQPPKLLIYLASNLDSGVPDRFSGSGSGTDFTLTISSLQAEDVAVYYCQESRELPTFGQGTKLEIK', 10.05);

Now look at this entry.
[ask] Check the records and state pKd for QP256253 (antibody, human IgG4, V domains shown, also called humanized antibody QP256253; QP163164 humanized clone) VH: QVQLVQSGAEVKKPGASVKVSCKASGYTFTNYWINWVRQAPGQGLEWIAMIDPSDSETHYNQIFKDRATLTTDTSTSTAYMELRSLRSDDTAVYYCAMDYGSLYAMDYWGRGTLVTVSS VL: DIVLTQSPDSLAVSLGERATINCRASKSVSSSGYNYIFWYQQKPGQPPKLLIYLASNLDSGVPDRFSGSGSGTDFTLTISSLQAEDVAVYYCQHSRELPTFGQGTKLEIK
[reply] 9.56
